Measured Quantity: melting point (°C)

Recorded results for 3 molecules are shown here.
OCCc1ccc(OCc2ccccc2)cc1 [2-(4-benzyloxyphenyl)ethanol]
86
C/C(=C\c1ccccc1)c1ccccc1 [(e)-alpha-methylstilbene]
81
CC(=O)c1ccc(Br)cc1 [4'-bromoacetophenone]
51

[A] CO [Methanol]
[B] CCCOC(=O)c1ccc(O)cc1 [N-propyl 4-hydroxybenzoate]
[C] N#CC(=Cc1cccc(O)c1)C1N=c2ccccc2=N1
Order these by melting point, descending, and give the full ranking. Thanks in advance for listing the labels in the requested order.
C, B, A

[a] O=C(O)[C@H]1CCCN1C(=O)OCc1ccccc1 [N-benzyloxycarbonyl-D-proline]
[b] O=C(O)/C(=C/c1ccc([N+](=O)[O-])cc1)c1ccccc1 [(E)-2-phenyl-3-(4-nitrophenyl)propenoic acid]
[c] ClCCl [dichloromethane]
[d] CCOC(=O)c1ccccc1B(O)O [2-(ethoxycarbonyl)benzeneboronic acid]
[e] COc1ccc(O)c(C=O)c1 [2-hydroxy-5-methoxybenzaldehyde]
Rank ascending by melting point. Put the labels in the requested order and write them down.
c, e, a, d, b

[I] Oc1ccc2c(c1)CCCC2 [5,6,7,8-tetrahydro-2-naphthol]
[II] O=C(O)c1cccc([N+](=O)[O-])c1 [3-nitrobenzoic acid]
I need your help: which of the pair I , II has higher melting point? State the label of the item chosen.
II

----------
Measured Quantity: melting point (°C)

NC(=O)C1=C(CCc2ccccc2)CCCC1 [2-(2-phenylethyl)cyclohex-1-ene-1-carboxamide]
113

[a] OC(c1ccccc1)c1ccccc1 [Diphenylmethanol]
[b] O=C(O)CCCCCCCCC(=O)O [sebacic_acid]
Of the two listed items, which has the higher melting point? First: a Second: b State your choice using its label.
b

[P] CCCCc1ccc(B(O)O)cc1 [4-n-butylbenzeneboronic acid]
[Q] Fc1ccc(F)c(F)c1F [1,2,3,4-tetrafluorobenzene]
[R] Nc1ccc(S(=O)(=O)Nc2ccccn2)cc1 [4-Amino-N-(pyridin-2-yl)benzenesulfonamide]
Form: Sort by [melting point] Order [ ascending ] Note for the reader: the ranking is given by listing the labels in the order requested.
Q, P, R
(Q: -42 °C, P: 105 °C, R: 192 °C)

[I] ICI [diiodomethane]
[II] OC(c1ccccc1)(c1ccccc1)c1ccccc1 [Triphenylmethanol]
Choose between I and II : whose measured melting point value is numerically larger? Your answer should be the label attached to the chosen record.
II

----------
Measured Quantity: melting point (°C)

Nc1ccc(Cl)c(Cl)c1 [3,4-Dichloroaniline]
72
CC(CN1c2ccccc2Sc2ccccc21)N(C)C (centres undefined) [promethazine]
60

[I] NCCNCCNCCN [N,N'-Bis(2-aminoethyl)ethane-1,2-diamine]
[II] N#Cc1ccccc1[N+](=O)[O-] [o-nitrobenzonitrile]
Lower value of melting point belongs to which: I or II ? Give the chosen item's label as your response.
I

----------
Measured Quantity: melting point (°C)

Here is how some compounds turned out for melting point.
Clc1cccnc1Cl [2,3-dichloropyridine]
67
NC(=O)OCC(COC(N)=O)c1ccccc1 [felbamate]
151
N#CCc1ccc(O)cc1 [4-hydroxybenzyl_cyanide]
71

[A] CC12CCC(/C(=C/N(O)c3ccccc3)C1=O)C2(C)C (centres undefined)
[B] Nc1ccccn1 [2-aminopyridine]
[C] CC(C)C=O [2-Methylpropanal]
# rank_down: sort by melting point, max first Present the labels in the sequence the task asks for.
A, B, C
(A: 107 °C, B: 58 °C, C: -65 °C)

----------
Measured Quantity: melting point (°C)

Cc1ccccc1Br
-27

[I] CNC[C@H](O)c1ccc(O)c(O)c1 [epinephrine]
[II] CC(C)(C)OC(=O)O/N=C(\C#N)c1ccccc1
Select one: I or II . Criterion: greater recorded melting point. Identify your selection by its label.
I

[I] O=C(O)CCCCC(=O)O
[II] CCCCCCCCCCI
[III] C/C=C/CCCCC [trans-2-octene]
[IV] N#CCC(=O)O
[V] CCOc1ccccc1
Parameters: sort_field (melting point), sort_dir (desc). Answer by writing out the labels in the requested order.
I, IV, II, V, III

----------
Measured Quantity: melting point (°C)

C=Cc1ccc(Cl)cc1
-16
Cc1cc(/C=C2\S/C(=N\c3ccccc3)N(C3CCCC3)C2=O)c(C)n1-c1ccc(C(F)(F)F)cc1
71.5
O=C(O)C1C(C(=O)O)C2(Cl)C(Cl)=C(Cl)C1(Cl)C2(Cl)Cl (stereo unspecified)
240
COc1ccc2cc[nH]c2c1
92
O=C(Cl)C(Cl)(Cl)Cl [trichloroacetyl chloride]
-146
CCNc1nc(NC(C)(C)C)nc(SC)n1
105

----------
Measured Quantity: melting point (°C)

In the examples that follow, each entry is paired with its recorded melting point.
CCCOC1CCC2C3CC=C4CC5(CCC4(C)C3CCC12C)OCCO5 (stereo not given)
209
C=C[C@H]1C[N@@]2CC[C@H]1C[C@@H]2[C@@H](O)c1ccnc2ccccc12 [(9S)-Cinchonan-9-ol]
265
c1ccc(-c2cccc(-c3ccccc3)c2)cc1 [m-terphenyl]
87

[P] COC(=O)c1ccc(N)nc1 [methyl 6-aminonicotinate]
[Q] OC1COC2C(O)COC12 (stereo not given) [1,4:3,6-dianhydrohexitol]
// pick larger melting point from pair: P vs Q # reply format: chosen label
P
(P: 155 °C, Q: 61 °C)

----------
Measured Quantity: melting point (°C)

Some compounds with known melting point results, for comparison:
Nc1ccc(Cl)cc1C(=O)c1ccccc1
98
Cc1occc1C(=O)O
98
[O-][n+]1c(Cl)cccc1Cl [2,6-dichloropyridine n-oxide]
138

[1] COC(=O)Cc1ccc(Cl)c(Cl)c1 [methyl 3,4-dichlorophenylacetate]
[2] O=C(O)[C@H](O)[C@@H](O)C(=O)O [(2R,3R)-2,3-Dihydroxysuccinic acid]
[3] O=S(=O)(Cl)Cc1cccc(Cl)c1 [3-chlorophenylmethanesulfonyl chloride]
rank_up(items): orders items by reported melting point in ascending numerical order. I'd appreciate it if you listed the labels in the requested order.
1, 3, 2
(1: 29 °C, 3: 71 °C, 2: 171 °C)

----------
Measured Quantity: melting point (°C)

N#C/C=C/c1cc(C(F)(F)F)cc(C(F)(F)F)c1
82
O=C(O)CCCCCCCCCCCCCCC(=O)O
125
O=[N+]([O-])c1ccc(N/N=C/C2=C(/C=C/c3ccccc3)CCCC2)c([N+](=O)[O-])c1
163

[P] O=Cc1cccc(C(=O)O)c1
[Q] Cc1cn([C@H]2C[C@H](N=[N+]=[N-])[C@@H](CO)O2)c(=O)[nH]c1=O
Consider entries P and Q . Which has the numerically lower melting point? Please indicate the selected item by its label.
Q

----------
Documented melting point across a set of compounds
Numbers only here, please. The scale is °C.

NC(=O)CS(=O)C(c1ccccc1)c1ccccc1 (centres undefined)
164

Field request: melting point | item: CCC(=O)C(C[C@H](C)N(C)C)(c1ccccc1)c1ccccc1
102

Recorded melting point of Nc1ncnc2c1ncn2[C@@H]1O[C@H](CO)[C@@H](O)[C@H]1O , please.
235

Return reported melting point; argument: NC(=O)CI [2-Iodoacetamide]
94

----------
Measured Quantity: melting point (°C)

Answered examples (3):
Cc1ccc(OC(=O)c2ccccc2)cc1 [p-tolyl_benzoate]
70
CCCCOC(=O)c1ccc(O)cc1 [Butyl 4-hydroxybenzoate]
68.5
CC1=C(c2ccccc2)c2ccccc2C1=O [2-methyl-3-phenyl-1H-inden-1-one]
87

[A] COC1=C(OC)/C(=C/C=O)OC1=O [(2Z)-(3,4-dimethoxy-5-oxofuran-2(5H)-ylidene)ethanal]
[B] O=C(O)/C=C/c1ccccc1 [trans-cinnamic acid]
API: POST /compare with A and B ; response names the item with higher melting point. Return value: the label identifying the chosen record.
B
(B: 135 °C, A: 61 °C)

----------
Measured Quantity: melting point (°C)

Example results:
CC1=C(C(=O)OCc2ccccc2)C(c2ccc3c(c2)OCO3)NC(=O)N1 (stereo unspecified)
159
Oc1ccc(Cl)c(Cl)c1 [3,4-dichlorophenol]
67
[O-][n+]1onc2ccccc21 [benzofuroxan]
69
O=CCCCC=O [glutaraldehyde]
-21

[A] COC(=O)CCCCCCCCC(=O)OC [Dimethyl sebacate]
[B] CN(C)c1ccc(/N=N/c2ccccc2C(=O)O)cc1 [methyl red]
Between A and B , which one has the lower reported melting point value? Answer by quoting the chosen item's label.
A
(A: 26.5 °C, B: 181 °C)

----------
Measured Quantity: melting point (°C)

Record excerpt, results attached:
CCC#CCCCC [3-octyne]
-104
C[C@@H](O)CO [1,2-Propanediol]
-60
O=C(CO)c1ccccc1 [2-hydroxyacetophenone]
6

[A] CC(=O)CCC(=O)O [Laevulinic Acid]
[B] Nc1cccc(O)c1 [3-aminophenol]
// compare measured melting point between A and B ; output the lower one In your reply, give the label of the chosen option.
A

----------
Measured Quantity: melting point (°C)

O=C(O)CCCCCCC[C@H](O)[C@H](O)CCCCCCO
99

[a] Cc1cccc(N)n1
[b] Cc1cc(C=O)cc(C)c1O [4-hydroxy-3,5-dimethylbenzaldehyde]
Compare a and b and name the one whose reported melting point is smaller. State the label of the item chosen.
a
(a: 43 °C, b: 114 °C)
